experimental system: C-C chemokine receptor type 8 (Homo sapiens)
Sequence (P51685 whole entry): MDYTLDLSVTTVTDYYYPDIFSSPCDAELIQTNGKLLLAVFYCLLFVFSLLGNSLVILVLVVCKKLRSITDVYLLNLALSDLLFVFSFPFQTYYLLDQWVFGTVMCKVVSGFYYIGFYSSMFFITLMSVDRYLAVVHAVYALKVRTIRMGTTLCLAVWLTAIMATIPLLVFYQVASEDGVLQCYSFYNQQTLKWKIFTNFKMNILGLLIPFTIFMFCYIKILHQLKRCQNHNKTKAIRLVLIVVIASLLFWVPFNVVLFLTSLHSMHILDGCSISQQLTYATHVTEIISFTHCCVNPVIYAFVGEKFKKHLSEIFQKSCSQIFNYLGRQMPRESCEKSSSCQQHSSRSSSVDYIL
protocol summary: Antagonist activity against CCR8 (unknown origin) expressed in CHO-K1 cells preincubated for 1 hr followed by CCL1 addition measured after 24 hrs by ONE-Glo assay
Format: cell-based
pIC50: −log10 of the molar value.
measurement type: pIC50

Below: 5 compounds and their reported pIC50.
Please report the measured pIC50 for `COC(=O)CN1CCC([C@@H](C)NS(=O)(=O)c2ccc(NC(=O)c3ccccc3C)c(C)c2)CC1` tested on C-C chemokine receptor type 8 (Homo sapiens).
6.89

Please look at `Cc1ccccc1C(=O)Nc1ccc(S(=O)(=O)N[C@H](C)C23CCN(CC2)CC3)c2ccccc12` and tell me its recorded pIC50 on C-C chemokine receptor type 8 (Homo sapiens).
6.52

For C-C chemokine receptor type 8 (Homo sapiens), give pIC50 of the listed compound: `Cc1cc(S(=O)(=O)N[C@H](C)C2CCN(C)CC2)ccc1NC(=O)c1cc(Cl)ccc1C`
8.77

For C-C chemokine receptor type 8 (Homo sapiens), give pIC50 of the listed compound: `Cc1ccccc1C(=O)Nc1ccc(S(=O)(=O)NC2CCN(C(=O)N3CCN(C)CC3)CC2)c2ccccc12`
8.40

# lookup: C-C chemokine receptor type 8 (Homo sapiens) pIC50, key = `Cc1cc(S(=O)(=O)N[C@H](C)C2CCN(C)CC2)ccc1NC(=O)C1CCCCCC1`
7.55

1. Cc1cc(S(=O)(=O)NCC2CCN(C)CC2)ccc1NC(=O)c1ccccc1C
2. Cc1ccccc1C(=O)Nc1ccc(S(=O)(=O)N[C@H](C)C2CCN(C)CC2)cc1C#N
3. Cc1cc(S(=O)(=O)N[C@H](C)C2CCN(C)CC2)c(F)cc1NC(=O)c1ccccc1C
4. Cc1cc(S(=O)(=O)N[C@H](C)C2CCN(C)CC2)ccc1NC(=O)c1ccc(Cl)cc1C
5. COCCN1CCC([C@@H](C)NS(=O)(=O)c2ccc(NC(=O)c3ccccc3C)c(C)c2)CC1
List by increasing pIC50. List the labels according to the requested ordering.
1, 5, 2, 3, 4
(1: 6.60, 5: 7.10, 2: 7.48, 3: 8.22, 4: 8.77)

---

experimental system: Cytochrome P450 2C19 (Homo sapiens)
Sequence (P33261 whole entry): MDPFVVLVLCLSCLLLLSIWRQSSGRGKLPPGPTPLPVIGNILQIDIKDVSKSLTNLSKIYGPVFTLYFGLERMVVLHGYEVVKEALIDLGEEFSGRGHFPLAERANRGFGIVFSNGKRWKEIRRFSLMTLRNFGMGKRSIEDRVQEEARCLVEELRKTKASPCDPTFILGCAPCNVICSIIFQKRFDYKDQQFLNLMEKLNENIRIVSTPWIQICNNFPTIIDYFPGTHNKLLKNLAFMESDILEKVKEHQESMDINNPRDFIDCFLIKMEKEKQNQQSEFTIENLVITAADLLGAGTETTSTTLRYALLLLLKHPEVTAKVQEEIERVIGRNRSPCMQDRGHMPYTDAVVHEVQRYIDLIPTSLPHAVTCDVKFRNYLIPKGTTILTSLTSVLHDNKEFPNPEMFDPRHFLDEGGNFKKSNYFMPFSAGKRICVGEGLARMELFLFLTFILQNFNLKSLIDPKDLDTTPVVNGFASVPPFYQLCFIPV
measurement type: IC50

Write down measured IC50 (Cytochrome P450 2C19 (Homo sapiens)) for this compound. `Cc1cc(S(=O)(=O)N[C@H](C)C2CCN(C)CC2)ccc1NC(=O)c1ccccc1C`
> 10 µM

---

experimental system: Voltage-gated inwardly rectifying potassium channel KCNH2 (Homo sapiens)
Sequence (Q12809 whole entry): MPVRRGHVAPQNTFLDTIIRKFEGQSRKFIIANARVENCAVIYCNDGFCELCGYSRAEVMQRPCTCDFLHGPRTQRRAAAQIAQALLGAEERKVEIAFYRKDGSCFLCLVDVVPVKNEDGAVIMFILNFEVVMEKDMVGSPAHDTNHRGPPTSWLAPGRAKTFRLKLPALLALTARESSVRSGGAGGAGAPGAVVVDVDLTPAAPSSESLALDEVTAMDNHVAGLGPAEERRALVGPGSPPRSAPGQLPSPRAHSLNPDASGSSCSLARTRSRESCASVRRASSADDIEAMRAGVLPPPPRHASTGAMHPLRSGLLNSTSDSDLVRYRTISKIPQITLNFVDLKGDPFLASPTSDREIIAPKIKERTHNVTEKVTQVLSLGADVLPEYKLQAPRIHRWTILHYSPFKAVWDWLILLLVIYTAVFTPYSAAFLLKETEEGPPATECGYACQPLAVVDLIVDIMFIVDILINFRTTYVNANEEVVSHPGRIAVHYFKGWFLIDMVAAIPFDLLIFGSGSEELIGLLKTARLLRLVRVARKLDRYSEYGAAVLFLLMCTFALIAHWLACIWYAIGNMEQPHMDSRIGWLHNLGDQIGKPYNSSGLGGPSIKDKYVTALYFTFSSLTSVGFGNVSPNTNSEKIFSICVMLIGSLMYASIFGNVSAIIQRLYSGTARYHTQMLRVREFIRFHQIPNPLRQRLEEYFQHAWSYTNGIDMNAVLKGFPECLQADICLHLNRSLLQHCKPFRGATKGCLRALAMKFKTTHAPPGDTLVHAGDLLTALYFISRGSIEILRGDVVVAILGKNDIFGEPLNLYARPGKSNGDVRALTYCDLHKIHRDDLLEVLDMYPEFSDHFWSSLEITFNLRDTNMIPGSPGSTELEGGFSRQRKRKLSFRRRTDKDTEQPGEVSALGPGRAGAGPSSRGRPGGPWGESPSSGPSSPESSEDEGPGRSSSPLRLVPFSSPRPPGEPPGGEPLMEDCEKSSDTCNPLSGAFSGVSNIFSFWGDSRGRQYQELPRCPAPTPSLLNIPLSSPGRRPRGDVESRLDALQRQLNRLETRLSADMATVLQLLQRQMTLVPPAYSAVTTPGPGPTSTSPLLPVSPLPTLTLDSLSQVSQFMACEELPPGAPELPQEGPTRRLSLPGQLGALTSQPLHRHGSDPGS
pIC50: −log10 of the molar value.
measurement type: pIC50

Report pIC50, nothing else, for this compound: `Cc1cc(S(=O)(=O)N[C@H](C)C2CCN(C)CC2)ccc1NC(=O)c1ccccc1C`
< 4.52

---

experimental system: Cytochrome P450 1A2 (Homo sapiens, UniProt P05177)
Sequence (P05177 whole entry): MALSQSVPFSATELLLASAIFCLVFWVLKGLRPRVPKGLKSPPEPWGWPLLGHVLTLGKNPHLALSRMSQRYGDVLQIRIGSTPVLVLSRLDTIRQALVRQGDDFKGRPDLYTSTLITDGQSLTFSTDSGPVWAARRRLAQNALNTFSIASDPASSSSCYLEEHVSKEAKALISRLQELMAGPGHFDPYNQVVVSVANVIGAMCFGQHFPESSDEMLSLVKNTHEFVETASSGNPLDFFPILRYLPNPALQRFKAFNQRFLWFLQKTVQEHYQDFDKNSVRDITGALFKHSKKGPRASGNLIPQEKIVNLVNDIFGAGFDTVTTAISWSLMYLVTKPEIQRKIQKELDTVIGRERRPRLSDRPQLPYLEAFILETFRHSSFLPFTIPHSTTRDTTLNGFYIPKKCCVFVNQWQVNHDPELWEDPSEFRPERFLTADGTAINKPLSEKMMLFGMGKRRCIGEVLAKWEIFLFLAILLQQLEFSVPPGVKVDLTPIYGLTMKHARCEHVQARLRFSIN
measurement type: IC50

Give the measured IC50 for `Cc1cc(S(=O)(=O)N[C@H](C)C2CCN(C)CC2)ccc1NC(=O)c1ccccc1C`
> 10 µM
